system: P388 leukemia ip, CD2F1 mice, survival T/C; experiment: NCI In Vivo Anticancer Drug Screen. Data for tumor model P388 Leukemia (intraperitoneal) in CD2F1 (CDF1) mice; details: endpoint: median survival time; dose: 120.0 mg/kg/injection; schedule: Q01DX005 (ip); vehicle: saline; higher = longer survival
Inconclusive results and toxic doses are left out.
propertyMeasured: T/C

Reported T/C ( O=C(O)c1cocc1C(=O)O ) = 86 % of control

Reported T/C ( C[Si](C)(C)/N=C/O[Si](C)(C)C ) = 101 % of control

Reported T/C ( C[N+](C)(C)NP(=O)(N[N+](C)(C)C)c1ccccc1 ) = 106 % of control

Reported T/C ( CC1(C)OC(=O)C(CC(=O)O)O1 (configuration not stated) ) = 100 % of control

Reported T/C ( CS(=O)(=O)CC(=N\O)/C(CS(C)(=O)=O)=N/O ) = 94 % of control

Reported T/C ( OC1CN(Cc2ccccc2)C[C@@H]1O (some centres not stated) ) = 96 % of control

Reported T/C ( [N-]=[N+]=NCC1OC(n2cnc3c(N)ncnc32)CC1O (configuration not stated) ) = 100 % of control

---

For each entry below, report its T/C value.
Test system: P388 leukemia ip, CD2F1 mice, survival T/C
Assay: NCI In Vivo Anticancer Drug Screen. Data for tumor model P388 Leukemia (intraperitoneal) in CD2F1 (CDF1) mice
Conditions: endpoint: median survival time; dose: 100.0 mg/kg/injection; schedule: Q01DX005 (ip); vehicle: Klucel (hydroxypropylcellulose) (HPC); higher = longer survival
Protocol: The antitumor activity of compounds was measured in mice bearing transplantable tumors. Survival or tumor size were measured and the results are expressed as the measurement made in the treated group (T) divided by the measurement made in the vehicle treated control group (C). The tumor model used in this assay is P388 Leukemia (intraperitoneal) in CD2F1 (CDF1) mice
Toxic doses and inconclusive results are not listed.

Per the reported P388 leukemia ip, CD2F1 mice, survival T/C data, O=C(O)[C@H](Cc1ccccc1)N1C(=O)c2ccccc2C1=O has T/C of 105 % of control

Per the reported P388 leukemia ip, CD2F1 mice, survival T/C data, COc1cc2c(c3c1c(=O)c1ccc(F)cc1n3C)C=CC(C)(C)O2 has T/C of 108 % of control

Per the reported P388 leukemia ip, CD2F1 mice, survival T/C data, COc1ccc(/C=C2\CCN=C2c2ccccc2)cc1OC has T/C of 97 % of control

Per the reported P388 leukemia ip, CD2F1 mice, survival T/C data, CCN(CC)C1=C(c2ccccc2)C(=O)C1(C#N)C(C)(C)C (stereo not drawn) has T/C of 93 % of control

Per the reported P388 leukemia ip, CD2F1 mice, survival T/C data, COC(=O)c1ccccc1N1C(=O)c2ccccc2NP1(=O)Oc1ccccc1 (stereo not drawn) has T/C of 106 % of control

Per the reported P388 leukemia ip, CD2F1 mice, survival T/C data, O=C1Nc2cnc(Cl)nc2Nc2ccccc21 has T/C of 91 % of control

Per the reported P388 leukemia ip, CD2F1 mice, survival T/C data, CC(C)(C)OC(=O)NC(Cc1ccc(OCc2ccccc2)cc1)C(=O)ON1C(=O)CCC1=O (stereo not drawn) has T/C of 88 % of control

Per the reported P388 leukemia ip, CD2F1 mice, survival T/C data, CC(=O)O[C@H]1CC[C@@]2(C)C(=CC[C@@H]3[C@@H]2CC[C@]2(C)C(=NCCCN4CCOCC4)CC[C@@H]32)C1 has T/C of 101 % of control

Per the reported P388 leukemia ip, CD2F1 mice, survival T/C data, N#Cc1c(C(F)(F)F)cc(-c2cccs2)nc1C(C(=O)Nc1cc(Cl)c(Cl)cc1Cl)c1ccccc1 (stereo not drawn) has T/C of 92 % of control

Per the reported P388 leukemia ip, CD2F1 mice, survival T/C data, Cc1cc2c(oc(=O)c3cc(C)sc32)s1 has T/C of 103 % of control

Per the reported P388 leukemia ip, CD2F1 mice, survival T/C data, Cc1c(C)n(-c2ccccc2)c2nc(C)n(-c3ccccc3Cl)c(=N)c12 has T/C of 90 % of control

Per the reported P388 leukemia ip, CD2F1 mice, survival T/C data, O=C(O)C1CCCN1C(=O)OCc1ccccc1 (stereo not drawn) has T/C of 87 % of control

Per the reported P388 leukemia ip, CD2F1 mice, survival T/C data, CCCCNc1nc(C(F)(F)F)nc2nc[nH]c12 has T/C of 94 % of control
